Measured values drawn from patent EP0908457B1 for this set.

Tested on: Sagittaria pygmaea, L.
Assay: Preemergence weed control under flooded paddy conditions, SAGPY (Arrowhead (Pygmaea)); further: meaning of each grade not given here
Assay type: in vivo
Conditions: Rate 0.0320 kg/ha; preemergence weeds, flooded paddy; rated three to four weeks after treatment
observable: herbicidal effect rating, SAGPY
Lab note: record just the number, no unit beside it.

molecule	experimentalResult
Cn1c(C(F)(F)F)cc(=O)n(-c2ccc3snc(C(=O)CCl)c3c2)c1=O	0.0

Ask | Would you mind telling me what herbicidal effect rating, SAGPY value was observed for Cn1c(C(F)(F)F)cc(=O)n(-c2ccc3snc(C(=O)NS(=O)(=O)Cc4ccccc4)c3c2)c1=O ?
Reply | 1.0

Ask | Would you mind telling me what herbicidal effect rating, SAGPY value was observed for CN(O)C(=O)COc1ccccc1-c1nsc2ccc(-n3c(=O)cc(C(F)(F)F)n(C)c3=O)cc12 ?
Reply | 0.0

Ask | Would you mind telling me what herbicidal effect rating, SAGPY value was observed for CONC(=O)COc1ccc(C)cc1-c1nsc2ccc(-n3c(=O)cc(C(F)(F)F)n(C)c3=O)cc12 ?
Reply | 0.0

Ask | Would you mind telling me what herbicidal effect rating, SAGPY value was observed for Cn1c(C(F)(F)F)cc(=O)n(-c2ccc3snc(C(C)(Br)Br)c3c2)c1=O ?
Reply | 4.0

Ask | Would you mind telling me what herbicidal effect rating, SAGPY value was observed for Cn1c(C(F)(F)F)cc(=O)n(-c2ccc3snc(C(=O)NS(C)(=O)=O)c3c2)c1=O ?
Reply | 0.0

Ask | Would you mind telling me what herbicidal effect rating, SAGPY value was observed for Cc1ccc(OCC(=O)NO)c(-c2nsc3ccc(-n4c(=O)cc(C(F)(F)F)n(C)c4=O)cc23)c1 ?
Reply | 0.0

Ask | Would you mind telling me what herbicidal effect rating, SAGPY value was observed for COC(=O)C(C)Oc1cccc(-c2nsc3ccc(-n4c(=O)cc(C(F)(F)F)n(C)c4=O)cc23)c1 (centres unmarked) ?
Reply | 4.0
